tested on: Septoria tritici; experiment: Test C: preventive spray on wheat seedlings, Septoria tritici (wheat leaf blotch), visual disease rating; format: in vivo; details: 100 = 100% disease control, 0 = no control, unmarked values
Catalogue of Test C disease control rating values
Kindly answer with a numeric value in %, unit omitted.

Solved entries:
O=C(Nc1ccccc1-c1cnc(-n2ccc(C(F)(F)F)n2)c(Cl)c1)c1ccccc1C(F)(F)F [compound 33]: 100
Cn1cc(C(=O)Nc2ccccc2-c2cnc(-n3ccc(-c4ccccc4)n3)c(F)c2)c(C(F)F)n1 [compound 76]: 100
O=C(Nc1ccccc1-c1cnc(-n2ccc(C(F)(F)F)n2)c(F)c1)c1nccnc1C(F)(F)F [compound 115]: 98
Cn1cc(C(=O)Nc2ccccc2-c2cnc(-n3ccc(Br)n3)c(F)c2)c(C(F)F)n1 [compound 75]: 100
O=C(Nc1ccccc1-c1ccc(-n2cccn2)nc1)c1ncccc1C(F)(F)F [compound 12]: 100
O=C(Nc1ccccc1-c1cnc(-n2ccc(Br)n2)c(F)c1)c1ccccc1C(F)(F)F [compound 79]: 100

Now for the compound whose Test C disease control rating we want.
Exercise: Recall the reported Test C disease control rating of O=C(Nc1ccccc1-c1ccc(C2=NOC(c3cc(F)cc(F)c3)C2)nc1)c1ncccc1C(F)(F)F (racemic) [compound 19] when tested on Septoria tritici.
Key: 100

====

test system: Septoria tritici; experiment: Test C: preventive spray on wheat seedlings, Septoria tritici (wheat leaf blotch), visual disease rating; format: in vivo; details: 100 = 100% disease control, 0 = no control, unmarked values
Catalogue of Test C disease control rating values
Kindly answer with a numeric value in %, unit omitted.

Solved entries:
O=C(Nc1ccccc1-c1cnc(-n2cc(Cl)cn2)c(F)c1)c1ccccc1C(F)(F)F: 100
Cc1cc(-c2ccccc2NC(=O)c2ccccc2C(F)(F)F)cnc1-n1cc(Cl)cn1: 92
O=C(Nc1ccccc1-c1ccc(-n2cc(Cl)cn2)nc1)c1ncccc1C(F)(F)F: 100
Cn1cc(C(=O)Nc2ccccc2-c2ccc(-n3ccc(-c4ccccc4)n3)nc2)c(C(F)F)n1: 100
O=C(Nc1ccccc1-c1ccc(-n2ccc(C(F)(F)F)n2)nc1)c1nccnc1Cl: 100

Exercise: Give Test C disease control rating for the following compound: Cc1cc(-c2ccccc2NC(=O)c2ncccc2C(F)(F)F)cnc1-n1ccc(C(F)(F)F)n1
Key: 100

Exercise: Give Test C disease control rating for the following compound: Cn1cc(C(=O)Nc2ccccc2-c2cnc(-n3cc(Cl)cn3)c(F)c2)c(C(F)F)n1
Key: 100

Exercise: Give Test C disease control rating for the following compound: COc1ccccc1-c1ccn(-c2ccc(-c3ccccc3NC(=O)c3cn(C)nc3C(F)F)cn2)n1
Key: 75

====

Catalogue of Test C disease control rating values
tested on: Septoria tritici; assay: Test C: preventive spray on wheat seedlings, Septoria tritici (wheat leaf blotch), visual disease rating; assay type: in vivo; details: 100 = 100% disease control, 0 = no control, unmarked values
Kindly answer with a numeric value in %, unit omitted.

Solved entries:
Cc1ccc(-c2ccc(-c3ccccc3NC(=O)c3cn(C)nc3C(F)F)cn2)o1: 33
N#Cc1ccn(-c2ncc(-c3ccccc3NC(=O)c3ncccc3C(F)(F)F)cc2F)n1: 98
Cn1cc(C(=O)Nc2ccccc2-c2cnc(-n3ccc(C(F)(F)F)n3)c(F)c2)c(C(F)(F)F)n1: 98

Exercise: Give Test C disease control rating for the following molecule: O=C(Nc1ccccc1-c1cnc(-n2ccc(Br)n2)c(F)c1)c1ncccc1C(F)(F)F
Key: 100

Exercise: Give Test C disease control rating for the following molecule: Cc1ccc(-c2ccc(-c3ccccc3NC(=O)c3cn(C)nc3C(F)F)cn2)s1
Key: 81

Exercise: Give Test C disease control rating for the following molecule: CCOC(=O)C1CC(c2ccc(-c3ccccc3NC(=O)c3ncccc3C(F)(F)F)cn2)=NO1 (racemic)
Key: 26

Exercise: Give Test C disease control rating for the following molecule: Cn1cc(C(=O)Nc2ccccc2-c2ccc(-n3cc(-c4cccc(F)c4)cn3)nc2)c(C(F)F)n1
Key: 100

Exercise: Give Test C disease control rating for the following molecule: Cc1nc(C(F)(F)F)c(C(=O)Nc2ccccc2-c2cnc(-n3ccc(C(F)(F)F)n3)c(F)c2)s1
Key: 98

Exercise: Give Test C disease control rating for the following molecule: O=C(Nc1ccccc1-c1cnc(-n2ccc(C(F)(F)F)n2)nc1)c1nccnc1Cl
Key: 100

Exercise: Give Test C disease control rating for the following molecule: CC1=C(C(=O)Nc2ccccc2-c2cnc(-n3ccc(C(F)(F)F)n3)c(F)c2)S(=O)(=O)CCO1
Key: 84

Exercise: Give Test C disease control rating for the following molecule: CCOC(=O)C1(C)CC(c2ccc(-c3ccccc3NC(=O)c3ncccc3C(F)(F)F)cn2)=NO1 (racemic)
Key: 81

====

Catalogue of Test C disease control rating values
test system: Septoria tritici; assay: Test C: preventive spray on wheat seedlings, Septoria tritici (wheat leaf blotch), visual disease rating; assay type: in vivo; details: values marked with asterisk (*), meaning not given
Marks after values point to notes of the source that are not given here.

Cc1cc(C)c(C(=O)Nc2ccccc2-c2cnc(-n3ccc(C(F)(F)F)n3)c(Cl)c2)s1 [compound 116]: 99* %
O=C(Nc1ccccc1-c1cnc(-n2ccc(C(F)(F)F)n2)c(Cl)c1)c1ccsc1 [compound 112]: 77* %
N#Cc1cc(-c2ccccc2NC(=O)c2sccc2I)cnc1-n1ccc(C(F)(F)F)n1 [compound 143]: 100* %
Cn1cc(C(=O)Nc2ccccc2-c2cnc(-n3cnc(C(F)(F)F)c3)c(F)c2)c(C(F)F)n1 [compound 153]: 99* %
O=C(Nc1ccccc1-c1cnc(-n2ccc(C(F)(F)F)n2)c(Cl)c1)c1sccc1Cl [compound 168]: 95* %
Cn1cc(C(=O)Nc2ccccc2-c2cnc(-n3ccc(C(F)(F)F)n3)c(C#N)c2)c(C(F)(F)F)n1 [compound 127]: 62* %
O=C(NCCc1ncc(-n2cc(Br)cn2)cn1)c1ncccc1C(F)(F)F [Compound 180]: 2* %

Now for the molecule whose Test C disease control rating we want.
Exercise: Give Test C disease control rating for the following molecule: Cc1occc1C(=O)Nc1ccccc1-c1cnc(-n2ccc(C(F)(F)F)n2)c(Cl)c1 [compound 118]
Key: 42* %

====

tested on: Puccinia recondite f. sp. tritici; assay: Test D: preventive spray on wheat seedlings, Puccinia recondite f. sp. tritici (wheat leaf rust), visual disease rating; type: in vivo; settings: values marked with asterisk (*), meaning not given
Marks after values point to notes of the source that are not given here.
Measurement Kind: Test D disease control rating

Cc1cnn(-c2cnc(CCNC(=O)c3ncccc3C(F)(F)F)nc2)c1: 0* %
N#Cc1cc(-c2ccccc2NC(=O)c2sccc2I)cnc1-n1ccc(C(F)(F)F)n1: 100* %

Exercise: Give Test D disease control rating for the following compound: O=C(Nc1ccccc1-c1cnc(-n2ccc(C(F)(F)F)n2)c(Cl)c1)c1ccsc1
Key: 0* %

Exercise: Give Test D disease control rating for the following compound: O=C(Nc1ccccc1-c1ccc(-n2nc(C(F)(F)F)cc2O)nc1)c1ncccc1C(F)(F)F
Key: 97* %

Exercise: Give Test D disease control rating for the following compound: O=C(Nc1ccccc1-c1cnc(-n2ccc(C(F)(F)F)n2)c(Cl)c1)c1occc1Br
Key: 99* %

====

Measurement Kind: melting point

Solved entries:
Cn1cc(C(=O)Nc2ccccc2-c2cnc(-n3ccc(C(F)(F)F)n3)cn2)c(C(F)F)n1: 207 to 209 °C
Cn1cc(C(=O)Nc2ccccc2-c2cnc(-n3ccc(C(F)(F)F)n3)nc2)c(C(F)F)n1: 167 to 169 °C
Cn1cc(C(=O)Nc2ccccc2-c2ccc(-n3ccc(C(F)(F)F)n3)nn2)c(C(F)F)n1: 248 to 250 °C
O=C(Nc1ccccc1-c1cnc(-n2ccc(C(F)(F)F)n2)cn1)c1ccccc1C(F)(F)F: 180 to 182 °C
Cn1cc(C(=O)Nc2ccccc2-c2ccc(-n3ccc(C(F)(F)F)n3)nc2)c(C(F)F)n1: 157 to 159 °C

Now for the compound whose melting point we want.
Exercise: Give melting point for the following compound: O=C(Nc1ccccc1-c1cnc(-n2ccc(C(F)(F)F)n2)nc1)c1ncccc1C(F)(F)F
Key: 178 to 180 °C

====

test system: Puccinia recondite f. sp. tritici; assay: Test D: preventive spray on wheat seedlings, Puccinia recondite f. sp. tritici (wheat leaf rust), visual disease rating; assay type: in vivo; settings: 100 = 100% disease control, 0 = no control, unmarked values
Measurement Kind: Test D disease control rating (%)
Kindly answer with a numeric value in %, unit omitted.

CCOC(=O)C1CC(c2ccc(-c3ccccc3NC(=O)c3cn(C)nc3C(F)F)cn2)=NO1 (stereo not shown): 68
O=C(Nc1ccccc1-c1cnc(-n2ccc(Cl)n2)c(F)c1)c1ccccc1C(F)(F)F: 100
COc1cccc(-c2cnn(-c3ccc(-c4ccccc4NC(=O)c4ncccc4C(F)(F)F)cn3)c2)c1: 99
O=C(Nc1ccccc1-c1ccc(C2=NOC(c3cccc(F)c3)C2)nc1)c1ncccc1C(F)(F)F (racemic): 99
O=C(Nc1ccccc1-c1ccc(-n2ccc(C(F)(F)F)n2)nc1)c1nccnc1C(F)(F)F: 100

Exercise: Give Test D disease control rating for the following compound: Cc1cc(-c2ccccc2NC(=O)c2cn(C)nc2C(F)F)cnc1-n1cc(Cl)cn1
Key: 100
